Tested on: Human papillomavirus type 1a protein E7 (residues 44-93)
Assay: HPV1a E7 fragment binders on microarrays, primary screen, biochemical, small-molecule microarray, residues 44-93, 635 nm fluorescence (AID 1108);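 further: E7 fragment applied at 1 µg/mL in TBST for 1 h at 4 C; score combines spot fluorescence with its signal to noise ratio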
Conditions: small-molecule microarray binding, fluorescence 635 nm; higher = more signal
experimental_endpoint: composite z-score
Write no unit; give the number alone.

Example cases with answers are listed next.
[
  {
    "molecule": "COc1ccc([Si](C)(C)[C@H]2[C@H](CC(=O)N3CCC[C@H]3CO)O[C@@]3(C(=O)N(Cc4cccc(N5C(=O)c6cccc7cccc5c67)c4)c4ccccc43)[C@@H]2C)cc1",
    "subject_of_test": "Human papillomavirus type 1a protein E7 (residues 44-93)",
    "composite z-score": 1.34
  },
  {
    "molecule": "C=CCOC(=O)[C@H]1[C@@H]2C(=O)O[C@@H](c3ccccc3)[C@@H](c3ccccc3)N2[C@@H](c2ccc(OCCOC(=O)[C@@H]3C[C@@H]4C(=O)N[C@@H](CCCC[N+](C)(C)C)C(=O)N4[C@@H]3c3ccc(O)cc3)cc2)[C@]12C(=O)Nc1ccccc12",
    "subject_of_test": "Human papillomavirus type 1a protein E7 (residues 44-93)",
    "composite z-score": 1.26
  },
  {
    "molecule": "CC(C)N1C(=O)[C@@]2(Cc3ccccc31)c1ccccc1C(=O)N(C1CCCCC1)[C@H]2c1ccc(CO)cc1",
    "subject_of_test": "Human papillomavirus type 1a protein E7 (residues 44-93)",
    "composite z-score": 0.683
  },
  {
    "molecule": "CCOC(=O)C=Cc1cc([N+](=O)[O-])ccc1O",
    "subject_of_test": "Human papillomavirus type 1a protein E7 (residues 44-93)",
    "composite z-score": 0.0311
  },
  {
    "molecule": "CC1(C)[C@@H]2CC(C(O)C3C=CC4C(=O)N(c5ccccc5)C(=O)C4N3Nc3ccccc3)=C[C@H]1C2 (stereo partly drawn)",
    "subject_of_test": "Human papillomavirus type 1a protein E7 (residues 44-93)",
    "composite z-score": 0.455
  }
]

Notebook: O=C1O[C@H](c2ccccc2)[C@H](c2ccccc2)N2[C@H]1[C@@H](C(=O)Nc1nc3ccccc3s1)[C@]1(C(=O)Nc3ccc(C#CCCO)cc31)[C@H]2c1ccc(OCCO)cc1 , composite z-score read as 1.39

Record summary for CC(C)(C)OC(=O)CC[C@@]1(C(N)=O)N=C(c2ccc(OCCCO)cc2)O[C@@H]1c1ccccc1 : reported composite z-score = 1.38

Looking up CC(C)(C)OC(=O)CC[C@@]1(C(=O)NCCN2CCOCC2)N=C(c2ccc(OCCCO)cc2)O[C@@H]1c1ccccc1N=[N+]=[N-] , I see its composite z-score listed as 1.32

# composite z-score (molecule: CC(C)c1ccc(NN2C(C(O)c3cc(C(F)(F)F)cc(C(F)(F)F)c3)C=CC3C(=O)N(c4ccccc4)C(=O)C32)cc1 (stereo not drawn) ) is 1.35

Measured composite z-score of O=C1NC(=O)C2C1C=CC(C(O)Cc1ccccc1)N2Nc1ccc(Cl)cc1Cl (stereo not drawn) : -1.97

response.value for COCC(=C=CC[C@@H](O)c1ccccc1OCCO)C[C@@H](O)c1cc(Cl)cc(Cl)c1O (field: composite z-score) = 1.44

Input COCCOC(=O)N1C(=O)[C@@]2(c3cc(C#CCCO)ccc31)[C@H](C(=O)N1CCN(c3ncccn3)CC1)[C@H]1C(=O)O[C@H](c3ccccc3)[C@H](c3ccccc3)N1[C@@H]2c1ccccc1OCCO . Output composite z-score: 1.37

====

Assay: osmotic lysis modulators in infected erythrocytes, primary screen, PSAC antagonist project, cell-based, P. falciparum Indochina, OD700, 3 h (AID 1156)
Details: higher = more signal, called active from +8 up or from −8 down
experimental_endpoint: z-score
Lab note: record just the number, no unit beside it.

The examples below pair each entry with its known result.
[
  {
    "compound": "O=C1NC(=O)C2C1C=CC(C(O)Cc1ccccc1)N2Nc1ccc(Cl)cc1Cl (centres undefined)",
    "z-score": 0.273
  },
  {
    "compound": "COc1ccc(C(O)C2C=CC3C(=O)N(c4ccccc4)C(=O)C3N2Nc2ccc(C(C)C)cc2)cc1OCc1ccccc1 (centres undefined)",
    "z-score": -0.167
  },
  {
    "compound": "CN1C2C=C(CCCO)C(C3C(=O)N(C(N)=O)C(=O)C32)C1c1ccc(CN2CCCC2)cc1 (centres undefined)",
    "z-score": -0.695
  }
]

Now for another entry.
Briefly, z-score measured for C[N+](C)(C)CCCC[C@@H]1NC(=O)[C@@H]2C[C@H](C(=O)NCCCCCN)[C@H](c3cccc(OCCO)c3)N2C1=O : 0.214

====

Overview of reported z-score across a group of compounds:
Assay: A549 cell viability effects, profiling panel, calcein-AM fluorescence, 48 h, basal (AID 1162); further: test concentration not given here
Conditions: higher = more signal

# annotated cases, reported z-score shown
[
  {
    "compound": "CCCC[C@@H]1C[C@H]1[C@@H](NC(=O)c1ccco1)c1ccc(Cl)cc1",
    "z-score": -2.3
  },
  {
    "compound": "CCOC(=O)C[C@H]1[C@H](OC(=O)c2cc3ccccc3oc2=O)[C@@H](NC(=O)C2CCCCC2)c2cc(OCCCO)ccc2N1C(=O)c1ccccc1",
    "z-score": -0.11
  },
  {
    "compound": "COCCOC(=O)N1C(=O)[C@@]2(c3ccccc31)[C@H](c1ccc(O)cc1)N1[C@H](c3ccccc3)[C@H](c3ccccc3)OC(=O)[C@H]1[C@@H]2C(=O)NC[C@H](O)c1ccccc1",
    "z-score": 0.205
  }
]

In the following, a different compound is considered.
Query O=C1OCCC/C=C\[C@H]2OC34C=CCN(Cc5ccccc5)C(=O)[C@H]3N(CCCCCCO)C(=O)[C@@H]4C12 (some centres undefined) yields z-score of 2.3

====

Biological target: Carbonic anhydrase 2 (Homo sapiens)
Assay: CAII small-molecule binders, profiling panel, biochemical, small-molecule microarray, Alexa647-labelled CAII (AID 1122)
Conditions: CAII-A647 binding fluorescence, higher = more signal
Assign rule met whenever composite z-score does not fall below 0.5; assign rule not met whenever it does.

These solved cases illustrate the format of a correct answer.
[
  {
    "compound": "[N-]=[N+]=NCc1ccccc1C[C@]1(C(=O)N2CCOCC2)N=C(c2ccc(OCCCO)cc2)O[C@H]1c1ccccc1N=[N+]=[N-]",
    "cat": "rule met"
  },
  {
    "compound": "COCCOC(=O)N1C(=O)[C@@]2(c3cc(C#CCCO)ccc31)[C@H](C(=O)Nc1nc3ccccc3s1)[C@H]1C(=O)O[C@H](c3ccccc3)[C@H](c3ccccc3)N1[C@@H]2c1ccc(OCCO)cc1",
    "cat": "rule not met"
  },
  {
    "compound": "Cc1ccc(S[C@]2(C(=O)NC(C)C)CC(=O)N(Cc3ccccc3Cl)[C@@H]2c2ccc(CO)cc2I)cc1",
    "cat": "rule met"
  },
  {
    "compound": "C=CCOC(=O)[C@H]1[C@@H]2C(=O)O[C@@H](c3ccccc3)[C@@H](c3ccccc3)N2[C@@H](c2ccc(OCCOC(=O)[C@H]3C[C@H]4C(=O)N5CCC[C@H]5C(=O)N4[C@H]3c3ccc(O)cc3)cc2)[C@]12C(=O)Nc1ccccc12",
    "cat": "rule met"
  },
  {
    "compound": "COCCCNC(=O)C1N=C(c2ccc(OCCCO)cc2)N(c2ccccc2)O1 (configuration not stated)",
    "cat": "rule met"
  }
]

State whether the measured composite z-score reaches 0.5, counting equality as reaching it, for CCOC(=O)C1=CCC(c2ccc(C)cc2)N(S(=O)(=O)c2ccc(C)cc2)C1 (configuration not stated)
rule not met

Could you verify whether the entry CC(C)(C)OC(=O)CC[C@@]1(C(=O)NCCN2CCOCC2)N=C(c2ccc(OCCCO)cc2)O[C@@H]1c1ccccc1N=[N+]=[N-] shows composite z-score of no less than 0.5?
rule met

Is the recorded value of composite z-score equal to or greater than 0.5 for this compound? CCCCc1cn(C[C@H](Cc2ccccc2)NC(=O)N[C@H](CO)CCc2oc(C(C)=O)c(C(=O)OC)c2C(=O)OC)nn1
rule not met

====

Test: compound binding in COS7 lysate, probe aLAP1, primary screen, cell lysate, small-molecule microarray (AID 1124);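 further: lysate comes from COS7 cells expressing LAP1 and is applied at 0.3 µg/mL; score merges spot fluorescence near 667 nm with signal-to-noise over triplicate slides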
Details: probe aLAP1, fluorescence, higher = more signal
experimental_endpoint: composite z-score
Output: the number by itself.

Use the examples below as a reference point.
[
  {
    "compound": "COC(=O)[C@@]1(Cc2ccccc2)[C@H]2c3cc(C(=O)N4CCCC4)n(Cc4cccc5ccccc45)c3C[C@H]2CN1C(=O)c1ccccc1",
    "composite z-score": 0.539
  },
  {
    "compound": "COC(=O)[C@@]1(Cc2ccc(F)cc2)[C@H]2c3cc(C(=O)N(C)C)n(Cc4nc5ccccc5[nH]4)c3C[C@H]2CN1C(=O)c1ccccc1",
    "composite z-score": 0.35
  },
  {
    "compound": "CCCCCC1=C2CNC(CCC)(C(=O)OC)C=C2C(C)C1=O (configuration not stated)",
    "composite z-score": 0.448
  }
]

Reported composite z-score for CC1(C)[C@@H]2CC(C(O)C3C=CC4C(=O)N(c5ccccc5)C(=O)C4N3Nc3ccccc3)=C[C@H]1C2 (some centres not stated) was 0.322

compound CN(C)C(=O)[C@@]1(Cc2ccccc2)N=C(c2ccc(OCCCO)cc2)O[C@H]1c1ccccc1N=[N+]=[N-] , composite z-score observed: 0.935

Given item [N-]=[N+]=Nc1ccccc1[C@H]1OC(c2ccc(OCCCO)cc2)=N[C@@]1(Cc1ccccc1)C(=O)O , the value recorded as its composite z-score is 0.0378

Entry under test: C=CCNC(=O)[C@H]1[C@@H]2C(=O)O[C@@H](c3ccccc3)[C@@H](c3ccccc3)N2[C@@H](c2ccc(O)cc2)[C@]12C(=O)N(C(=O)OCCOC)c1ccc(C#CCNC(N)=O)cc12 . Its composite z-score was 0.0793

Provenance of the data: PubChem BioAssay
